Every entry's value here was drawn from the CheMixHub drug solubility set.

# protocolNotes: xn = mol fraction of the nth substance listed, in the solute-free solvent
# conditionParameters: 308.15 K; x2 = 0.2812
observationType: solubility (g/100 g solution)

A selection of reference data follows.
>>> reportedvalue("CC(C)OC(=O)C(C)NP(=O)(OCC1OC(n2ccc(=O)[nH]c2=O)C(C)(F)C1O)Oc1ccccc1 (centres undefined) + CCO + O")
25.5
>>> reportedvalue("Cc1[nH]c(=O)c(C#N)cc1-c1ccncc1 + CCO + O")
0.00517

P. COc1cc2c(cc1OC)-c1cc3ccc(OC)c(OC)c3c[n+]1CC2.[Cl-] + CCO + O
Q. Nc1cccc(S(=O)(=O)c2cccc(N)c2)c1 + CCO + O
# compare solubility (g/100 g solution) for P vs Q ; return the one with the smaller value Refer to your chosen entry by its label in the reply. Q
(Q: 1.3, P: 4.32)
